# maps each entry to its furin cleavage Z-score
measurement.target: furin, P09958;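 further: purified furin at 1:10 enzyme:substrate in 50 mM HEPES pH 7.5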
Sequence (P09958 whole entry): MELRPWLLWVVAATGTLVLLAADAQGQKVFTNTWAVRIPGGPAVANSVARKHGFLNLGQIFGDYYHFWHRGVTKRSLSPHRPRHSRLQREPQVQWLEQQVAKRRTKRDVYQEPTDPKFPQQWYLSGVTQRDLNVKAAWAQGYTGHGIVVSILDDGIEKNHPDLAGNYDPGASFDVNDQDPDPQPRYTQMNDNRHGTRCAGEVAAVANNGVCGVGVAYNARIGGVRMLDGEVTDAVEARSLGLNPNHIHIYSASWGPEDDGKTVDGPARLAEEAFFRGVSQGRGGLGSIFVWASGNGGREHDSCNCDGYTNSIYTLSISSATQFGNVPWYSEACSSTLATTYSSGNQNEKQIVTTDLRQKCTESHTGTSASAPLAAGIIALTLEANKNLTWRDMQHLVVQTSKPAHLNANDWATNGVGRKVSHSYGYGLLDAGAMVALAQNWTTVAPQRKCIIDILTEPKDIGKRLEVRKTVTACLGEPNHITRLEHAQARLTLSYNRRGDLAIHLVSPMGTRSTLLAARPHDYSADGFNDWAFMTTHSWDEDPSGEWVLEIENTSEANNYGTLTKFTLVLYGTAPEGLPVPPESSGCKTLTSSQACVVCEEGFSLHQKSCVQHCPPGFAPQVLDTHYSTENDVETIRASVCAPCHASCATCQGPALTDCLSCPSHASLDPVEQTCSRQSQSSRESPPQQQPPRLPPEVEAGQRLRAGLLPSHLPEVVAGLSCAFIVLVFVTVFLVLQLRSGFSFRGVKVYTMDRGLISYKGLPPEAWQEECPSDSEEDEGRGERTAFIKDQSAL
experiment: furin cleavage Z-score vs untreated control; higher = more cleavage, active = 3.5 or more, inactive = 1 or less, 8 variable residues between constant flanks
experimental.setup: 7.5 min
This is one part of the list. How many sequences the whole screen found active is unknown.
// no unit, no text: just the number

>  <residue.codes>
CAGASRSPRGAGNASASA [FS-237]

>  <furin cleavage Z-score>
3.32

$$$$
>  <residue.codes>
CAREKRDSVCAGNASASA [FS-1851]

>  <furin cleavage Z-score>
1.11

$$$$
>  <residue.codes>
CAREKRHRKKAGNASASA [FS-2007]

>  <furin cleavage Z-score>
-1.19

$$$$
>  <residue.codes>
CAGWLLSPRGAGNASASA [HC208]

>  <furin cleavage Z-score>
0.27

$$$$
>  <residue.codes>
CATTECSGSWAGNASASA [HC1872]

>  <furin cleavage Z-score>
-0.691

$$$$
>  <residue.codes>
CATTPGSGSWAGNASASA [HC42]

>  <furin cleavage Z-score>
-0.496

$$$$
>  <residue.codes>
CALAWRSGRVAGNASASA [FS-817]

>  <furin cleavage Z-score>
-2.25

$$$$
>  <residue.codes>
CAYLKGKWVPAGNASASA [HC549]

>  <furin cleavage Z-score>
0.545

$$$$

Now, please, on to the next sequence.
Per the records, this sequence ( CASPLTTSQTAGNASASA [HC1060] ) has furin cleavage Z-score equal to 0.0213
